Multiple publications report IC50 for Lysine-specific demethylase 4A (Homo sapiens); what follows is a combined list.
QUANTITY_MEASURED: IC50

| COMPOUND | TEST_TARGET | QUANTITY_MEASURED | VALUE_REPORTED |
| --- | --- | --- | --- |
| CN(CCn1cnc(-c2cc(C(=O)O)ccn2)c1)CC1CC1 | Lysine-specific demethylase 4A (Homo sapiens) | IC50 | ≤ 100 nM |
| O=C(O)c1ccnc(-n2ccc(CCc3ccccc3)n2)c1 | Lysine-specific demethylase 4A (Homo sapiens) | IC50 | 100 to 1000 nM |
| Cc1ccc(CN(C)CCn2cnc(-c3cc(C(=O)O)ccn3)c2)cc1 | Lysine-specific demethylase 4A (Homo sapiens) | IC50 | ≤ 100 nM |
| CCN(CC)CCCCNCc1cc(CN)ccn1 | Lysine-specific demethylase 4A (Homo sapiens) | IC50 | > 2500 nM |
| CN(C)CCCCNCc1cc(C=O)ccn1 | Lysine-specific demethylase 4A (Homo sapiens) | IC50 | > 2500 nM |
| O=C(O)c1ccnc2cc(Cc3ccc(Cl)c(OC(F)(F)F)c3)[nH]c12 | Lysine-specific demethylase 4A (Homo sapiens) | IC50 | 100 to 1000 nM |
| CN(CCCn1cccn1)C(=O)CNCc1cc(/C=N/C2CC2)ccn1 | Lysine-specific demethylase 4A (Homo sapiens) | IC50 | 250 to 2500 nM |
| CCC(c1ccccc1)n1cnc(-c2cc(C(=O)O)ccn2)c1 (stereo not shown) | Lysine-specific demethylase 4A (Homo sapiens) | IC50 | ≤ 100 nM |
| CN(C)CCCNCc1cc(CN)ccn1 | Lysine-specific demethylase 4A (Homo sapiens) | IC50 | < 250 nM |
| CCN(CCn1cnc(-c2cc(C(=O)O)ccn2)c1)Cc1ccc(F)cc1 | Lysine-specific demethylase 4A (Homo sapiens) | IC50 | ≤ 100 nM |
